The measurements presented in this section are drawn from patent US20200317816A1.

Molecular target: anti-FXI/FXIa antibody NOV1401
Sequence (VH, as listed by the source, chain 1 of 2): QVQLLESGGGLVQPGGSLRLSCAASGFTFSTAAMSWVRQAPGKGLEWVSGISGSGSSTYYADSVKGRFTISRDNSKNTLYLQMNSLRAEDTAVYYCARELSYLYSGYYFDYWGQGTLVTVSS
Sequence (VL, as listed by the source, chain 2 of 2): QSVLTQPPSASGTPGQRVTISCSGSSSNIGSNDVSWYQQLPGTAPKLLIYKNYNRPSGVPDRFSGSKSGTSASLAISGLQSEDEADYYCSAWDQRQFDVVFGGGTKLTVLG
Assay: cell-based or functional assay
testReadout: percentage reversal of NOV1401 aPTT prolongation, NOV1401/anti NOV1401 ratio 1/10 (n/n) (%)
Please give a number only; it is taken to be in %.

// solved cases for percentage reversal of NOV1401 aPTT prolongation, NOV1401/anti NOV1401 ratio 1/10 (n/n) follow
[[record]]
binder = "IDT2 anti-NOV1401 Fab (Fab, V domains shown, Human Fab; The heavy chain entry is VH-CH1 (Fd); also called antidote) VH: QVQLVESGGGLVKPGGSLRLSCAASGFTFSSAAVHWVRQAPGKGLEWVGRIKSKADGGTTDYAAPVKGRFTISRDDSKNTLYLQMNSLKTEDTAVYYCARDSPSISSYSIPYFSGMDVWGQGTLVTVSS VL: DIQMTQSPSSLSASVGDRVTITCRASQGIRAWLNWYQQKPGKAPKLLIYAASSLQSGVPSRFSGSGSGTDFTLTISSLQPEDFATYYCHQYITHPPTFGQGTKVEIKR"
valueobserved = 55

[[record]]
binder = "IDT10 anti-NOV1401 Fab (Fab, V domains shown, Human Fab; The heavy chain entry is VH-CH1 (Fd); also called antidote) VH: QVQLVQSGAEVKKPGASVKVSCKASGYTFTNYYVHWVRQAPGQGLEWMGWINPYSGNTNYAQKFQGRVTMTRDTSISTAYMELSRLRSEDTAVYYCARGASSIRMSYYLDVWGQGTLVTVSS VL: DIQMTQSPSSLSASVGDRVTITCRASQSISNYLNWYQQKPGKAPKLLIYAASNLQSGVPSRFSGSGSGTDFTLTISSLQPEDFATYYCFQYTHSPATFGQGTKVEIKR"
valueobserved = 40

[[record]]
binder = "IDT7 anti-NOV1401 Fab (Fab, V domains shown, Human Fab; The heavy chain entry is VH-CH1 (Fd); also called antidote) VH: QVQLVESGGGLVKPGGSLRLSCAASGFTFSSNAMHWVRQAPGKGLEWVGRIKSKTDGGTTDYAAPVKGRFTISRDDSKNTLYLQMNSLKTEDTAVYYCARDHYYYPFAYWGQGTLVTVSS VL: DIQMTQSPSSLSASVGDRVTITCRASQSIRYNLAWYQQKPGKAPKLLIYAASSLQSGVPSRFSGSGSGTDFTLTISSLQPEDFATYYCHQYIAKPITFGQGTKVEIKR"
valueobserved = 54


In the following, a different binder is considered.
Problem: Could you please provide reported percentage reversal of NOV1401 aPTT prolongation, NOV1401/anti NOV1401 ratio 1/10 (n/n) for IDT3 anti-NOV1401 Fab (Fab, V domains shown, Human Fab; The heavy chain entry is VH-CH1 (Fd); also called antidote) VH: QVQLVESGGGLVKPGGSLRLSCAASGFTFQSAAVHWVRQAPGKGLEWVGRIKSKADGGTTDYAAPVKGRFTISRDDSKNTLYLQMNSLKTEDTAVYYCARDSPSISSYSIPYFSGMDVWGQGTLVTVSS VL: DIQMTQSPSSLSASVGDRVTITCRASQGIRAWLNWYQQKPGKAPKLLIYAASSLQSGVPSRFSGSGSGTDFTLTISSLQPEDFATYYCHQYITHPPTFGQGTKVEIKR ? Thanks!
Result: 58
